Tested on: SN12C renal
Experiment: NCI tumour cell line growth inhibition, 48 h

Molecule | System name | Censor symbol | TGI / µM
[O-][n+]1onc2c1CCC(=N\O)/C2=N/Nc1ccccc1 | SN12C renal | > | 100
CCC(CO)Nc1nc(NCc2ccccc2O)c2ncn(C(C)C)c2n1 (stereo not given) | SN12C renal | = | 37.5
Nc1c2c(=O)[nH]c(=O)c2c(N)c2c(=O)c3ccccc3c(=O)c12 | SN12C renal | = | 3.17
Cn1c(/C=C(\C#N)c2ccccc2)nc2c(N3CCOCC3)nc(Cl)nc21 | SN12C renal | = | 2.48
Cc1ccccc1C(=O)c1ccccc1O | SN12C renal | > | 100
O=C(CCc1ccccc1)ON1C(=S)NC(c2ccccc2)(c2ccccc2)C1=S | SN12C renal | > | 100
COc1cc(OC)c2c(=O)cc(-c3ccccc3F)[nH]c2c1 | SN12C renal | > | 100
COc1ccc(/C=C/C(=O)c2ccc(SC)cc2)cc1OC | SN12C renal | = | 26.5
Oc1cc(Br)cc2cccnc12 | SN12C renal | > | 55.6
COC(=O)C1=C(C(=O)ON)C2C=CC1(C(Cc1ccccc1)Nc1ccccc1)O2 (stereo not given) | SN12C renal | = | 4.45

====

Test system: ACHN renal
Test: NCI tumour cell line growth inhibition, 48 h
The following compounds are listed with their measured TGI values.

Compound | Endpoint unit | Censor symbol | TGI
CCC/C(=N/N=C(N)N)c1ccc(NC(=O)c2cc3cc(OC)ccc3[nH]2)cc1 | µM | = | 33.1
O=C1C(Cl)=C(Nc2cccc(Cl)c2)C(=O)N1Cc1ccccc1Cl | µM | = | 17.1
OC1(c2ccccc2)CC2CCC(C1)N2CCCC1(c2ccc(F)cc2)OCCO1 (stereo not given) | µM | > | 100
CN(C(=O)C12C3C4C1C1C4(C(=O)C45C6C7C4C4C5C6C74C)C3C12C)C(C)(C)C (stereo not given) | µM | > | 100
COc1cc(CNc2ccc3nc4n(c(=O)c3c2)CCCCC4)cc(OC)c1OC | µM | > | 100
NNC(=O)c1ccccc1NC(=O)/C(=C/c1ccccc1O)NC(=O)c1ccccc1 | µM | = | 32.7
Cc1ccc2c(=O)c3cccc(CC(=O)O)c3[nH]c2c1C | µM | > | 100
c1ccc2[nH]c(-c3ccc(NN=Nc4ccncc4)cc3)nc2c1 | µM | > | 100
O=C1c2ccccc2NC(=O)C2C1C(c1ccccc1)CC2(O)c1ccccc1 (stereo not given) | µM | > | 100
O=C1/C(=C/c2ccccc2)CN(C(=O)c2cccnc2)C/C1=C\c1ccccc1 | µM | = | 4.53

====

System: A498 renal
Test: NCI tumour cell line growth inhibition, 48 h
The entries below are paired with their reported TGI.

Molecule | TGI
CC1=C2C[C@H]3[C@@H](CC[C@@H]4CC(NS(C)(=O)=O)CC[C@@]43C)[C@@H]2CC[C@@]2(C1)O[C@@H]1C[C@H](C)CN[C@H]1[C@H]2C (stereo partly specified) | 26.8 µM
N#Cc1c(O)c(N=Nc2ccccc2F)c(=O)n2c1[nH]c1ccccc12 | > 100 µM
Clc1cc(Cc2cc(Cl)c(Cl)c3c2OCOC3)c2c(c1Cl)COCO2 | 80.4 µM
Nc1nc(N)c(C2=CCNCC2)c(=O)[nH]1 | > 100 µM
c1ccc2c(c1)nc1n2CCCn2ccnc2-1 | > 100 µM
CCN1CCN(c2ccc(Nc3ccnc4ccc5c(nnn5C)c34)cc2)CC1 | 29.5 µM
CC(C)=CCNc1ncnc2nc[nH]c12 | > 100 µM
COc1ccc2nc3ccc(OC)cc3c(SCc3ccc([N+](=O)[O-])cc3)c2c1 | > 100 µM
Cc1ccc(N=Nc2ccc(O)c(CN(C)C)c2)cc1C | 47.4 µM
C/C(=N\Nc1cc(C)c2cc(C)ccc2n1)c1ccccn1 | 3.68 µM
CC(=O)O[C@H]1C(=O)[C@@]2(C)[C@H]([C@H](OC(=O)c3cccc(C(F)(F)F)c3)[C@]3(O)C[C@H](OC(=O)[C@H](O)[C@@H](NC(=O)c4ccccc4)c4ccccc4)C(C)=C1C3(C)C)[C@]1(OC(C)=O)CO[C@@H]1C[C@@H]2O | > 13.6 µM
COC(=O)c1sc2ncc3c(c2c1N)CCCCCC3 | > 100 µM
O=C(NC(CS)C(=O)O)c1cccc2c(=O)c3ccccc3[nH]c12 (stereo unspecified) | > 100 µM
Oc1ccccc1/C=N/Nc1nc(N/N=C/c2ccccc2O)nc(N/N=C/c2ccccc2O)n1 | > 100 µM
CCC/C(=N/NC(=O)C(N)=O)C(CC)C(=O)CCC(=O)N(Cc1ccccc1)Cc1ccccc1 (stereo unspecified) | > 100 µM
C#CCOc1c(C(=O)OCC)c(=O)n(C)c2ccccc12 | > 100 µM
